Test: Mice PK study
Format: in vivo
Details: plasma; CD-1 mouse, po, 25 mg/kg; read-out: t ½ (converted)
Property Name: half-life (h)
Your answer is read as h, so omit the unit and give the number.

Qu. Assign half-life to the following record: CC#CC(=O)N1CCC[C@H]1c1nc(-c2ccc(C(=O)Nc3ccccn3)cc2)c2c(N)nccn12 [Acalabrutinib, reference compound]
Ans. 1.1

---

Target: WT BTK (Homo sapiens, UniProt Q06187)
Sequence (Q06187 whole entry): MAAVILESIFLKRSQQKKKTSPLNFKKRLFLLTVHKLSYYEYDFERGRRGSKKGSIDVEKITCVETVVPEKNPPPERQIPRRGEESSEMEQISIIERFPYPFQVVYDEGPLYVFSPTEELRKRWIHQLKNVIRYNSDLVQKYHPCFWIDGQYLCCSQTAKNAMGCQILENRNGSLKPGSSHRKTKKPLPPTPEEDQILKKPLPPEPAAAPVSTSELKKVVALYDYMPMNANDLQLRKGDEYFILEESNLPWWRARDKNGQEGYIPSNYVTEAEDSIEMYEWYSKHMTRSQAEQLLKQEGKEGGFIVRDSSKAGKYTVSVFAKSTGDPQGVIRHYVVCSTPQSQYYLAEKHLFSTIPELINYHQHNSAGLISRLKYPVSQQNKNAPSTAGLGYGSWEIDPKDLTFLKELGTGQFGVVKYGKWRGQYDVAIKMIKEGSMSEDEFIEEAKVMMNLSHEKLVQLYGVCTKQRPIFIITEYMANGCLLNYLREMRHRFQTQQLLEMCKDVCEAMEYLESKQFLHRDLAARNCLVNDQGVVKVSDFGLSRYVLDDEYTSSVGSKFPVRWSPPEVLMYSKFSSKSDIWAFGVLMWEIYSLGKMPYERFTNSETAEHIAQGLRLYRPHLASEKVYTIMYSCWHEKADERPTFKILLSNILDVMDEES
Assay: Caliper-based kinase assay, WT BTK
Format: biochemical
Conditions: 0.5 nM enzyme, ATP 16 μM, room temperature 3 h; read-out: WT BTK IC50 (nM) (irreversible inhibition)
Property Name: IC50 (nM)
Your answer is read as nM, so omit the unit and give the number.

{"Compound": "C=CC(=O)Nc1cc(Nc2nc(-c3ccnc(N4CCc5c(sc6c5CCCC6)C4=O)c3CO)cn(C)c2=O)ccc1N1CCN(C2CCOCC2)C[C@@H]1C(F)(F)F [Example 55-R]", "Reading Unit": "nM", "IC50": 0.24}

Qu. Assign IC50 to the following record: C=CC(=O)Nc1cc(Nc2nc(-c3ccnc(N4CCCn5c(cc6c5CC(C)(C)C6)C4=O)c3CO)cn(C)c2=O)ccc1N1CCN(C2COC2)C[C@@H]1C [Example 29]
Ans. 0.076

Qu. Assign IC50 to the following record: C=CC(=O)Nc1cc(Nc2nc(-c3ccnc(N4CCn5c(cc6c5CC(C)(C)C6)C4=O)c3CO)cn(C)c2=O)ccc1C1CN(C2COC2)CC(=O)N1C (stereo not drawn) [Example 42]
Ans. 0.24
